Biological target: A3Gctd-2K3A-E259A (UniProt Q9HC16 191-384, L234K;C243A;E259A;F310K;C321A;C356A)
Sequence (Q9HC16 191-384 L234K/C243A/E259A/F310K/C321A/C356A): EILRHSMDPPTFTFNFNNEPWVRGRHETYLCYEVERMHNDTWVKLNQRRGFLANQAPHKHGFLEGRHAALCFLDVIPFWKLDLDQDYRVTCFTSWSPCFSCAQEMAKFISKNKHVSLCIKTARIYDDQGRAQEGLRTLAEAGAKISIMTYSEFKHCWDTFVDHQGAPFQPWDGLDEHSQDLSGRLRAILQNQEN
Assay: MST
readout: pKd
Field pKd (float): negative decimal logarithm of the concentration in molar.

>>> recordedvalue("AATCCCAAA (ssDNA, ribocytidine at position 6, rest DNA) [5'-AATCCrCAAA]")
2.18
>>> recordedvalue("ATTCCCAATT (XNA, 2'-deoxy-2'-fluororibocytidine at position 6, rest DNA) [5'-ATTCC(2'-F-RNA)CAATT]")
2.42

Please give measured pKd of the following entry: AATCCCAAA (ssDNA) [5'-AATCCCAAA (substrate)]
2.80

Please give measured pKd of the following entry: AATCCUAAA (ssDNA, deoxyuridine at position 6) [5'-AATCCdUAAA (intermediate product)]
2.66
